Test system: MS2 coat protein
Experiment: apparent Kd, MS2 coat protein; higher = weaker binding; RNA-MaP array; tryptophan 2.4 mM where present
Details: designed as: OFF switch for tryptophan; no ligand
Please use MET whenever apparent Kd is not below 50 nM, and NOT MET whenever it is.

UACUUGCUGACGGCCGCCACUAGAACAUGAGGAUCACCCAUGUAGGUCCUAGAUUCCUCAUGAACUAGGACCGGGUCAGCAAGAU | MET
AAUGGCCGUACCGGAAGGGUGAUCCUCAAACGAGGACCGGUACGGCCGCCACUCGAUAACAUGAGGAUCACCCAUGUAAUACAUA | MET
GGAUAGGACACGGCCGCCACUGCGGCUAGAUACUAGCACAUUUCCUCACAUGAGGAUCACCCAUGUAGGACCGGGUGUCCUAUCG | MET
ACUACGAAGACGGCCGCCACUGAUAUUCGUAGAUCCAUCAAUACAUGAGGAUCACCCAUGUAUAUCAGGACCGGGUCAAGAUGGU | NOT MET
UCGGGCAGAGCGGCCGCCACUGUAUGGCGUGCGGAUGACGGAACAUGAGGAUCACCCAUGUUGUUUAGGACCGGGCUUGCCGCGA | NOT MET
UCGCCCGGGUCGGCCGCCACUGCGGUGAUGUGACAUGAGGAUCACCCAUGUUGUCAUGUGGCACAUAGGACCGGGACCCGGGCGA | NOT MET

Could you now consider this next sequence?
Confirm if apparent Kd reported for the sequence GCGACCCUGAGAUCCUACGUAACGUGAACACGAGGACCGGUACGGCCGCCACUCGAGAGAACAUGAGGAUCACCCAUGUCUGAGC is 50 nM or above. NOT MET

====

apparent Kd: recorded values
Tested on: MS2 coat protein
Assay: apparent Kd, MS2 coat protein; higher = weaker binding; RNA-MaP array; FMN 200 µM where present
Details: ligand present: flavin mononucleotide; designed as: OFF switch for flavin mononucleotide
Give a bare numeral; the unit nM is implied.

# input sequence: AGAUAGUCAGGAUAUACAUGGAUGAUACACGUAUUUCCACUACAUGAGGAUCACCCAUGUAGAAGGGACUAUCA ; wanted: its apparent Kd 15.1

Can you share its apparent Kd? I mean this sequence: UCAGGCUUCGAGAAGGACAUGAAUCGUAGCAUUGCUACGAUGAAUUAUACAUGAGGAUCACCCAUGUAGGAUAUCGGAGUCUGC 6.34

Given the entry GGAUCGAGUGUGAGGAUAUACCACUGGAUACAGUGGUAGAAGGCACAUGAGGAUCACCCAUGUCCCUACGAUCC , report its measured apparent Kd. 204

Reported apparent Kd, sequence GGACGGUUAGUCAGGAUAUGCUCUACCUCGGUAGAGCAGAAGGGACAUGAGGAUCACCCAUGUGAUAACUGUUC : ____ 34.8

Report apparent Kd for AAAAAGGCAGGAUAUGCAUACACACAAAAAAAAAAACUGGGACAUGAGGAUCACCCAUGUAGAAGGGCCAAAAA please. 25.9

Return reported apparent Kd; argument: GAUCAACAUGAGGAUCACCCAUGUGAGGAUAUGAUACUAUGUACUUCGGUACAUAGUAUCAGAAGGCACAUUGA 367

Please give the measured apparent Kd for this sequence: CGAUCGUUGCAGAAGGUUAAAUAAUUAUCUACAUGUUUUACAUGAGGAUCACCCAUGUUUAUGUUGAAGGAUAUGCAAGGGUCG 8.09

====

System: MS2 coat protein
Assay: apparent Kd, MS2 coat protein; higher = weaker binding; RNA-MaP array; FMN 200 µM where present
Conditions: designed as: OFF switch for flavin mononucleotide; no ligand
observation_type: apparent Kd

Record excerpt, results attached:
GGAUAGGACAGAGGAUAUACGUGCUCGAGAUACUAGCAAAAUUUCCUCACAUGAGGAUCACCCAUGUAGAAGGCUGUCCUAUCG | 28.7 nM
CUUCAGUCAGGAUAUCUGCACGCUGGUGAGACCGGACGGAAGGAGAAGGGACAUGAGGAUCACCCAUGUAAAGC | 14 nM

Reported apparent Kd for MS2 coat protein, given GAAUAAUUGAUCCUUUUUUAUUACAUGAGGAUCACCCAUGUGCAGGAUAUCGAUUAUUAUAGUUUCGAGAAGGGCAAGAACUAU ? 27.5 nM

====

System: MS2 coat protein
Experiment: apparent Kd, MS2 coat protein; higher = weaker binding; RNA-MaP array
Conditions: ligand present: flavin mononucleotide; designed as: OFF switch for flavin mononucleotide
observation_type: apparent Kd (nM)
# unit: nM | format: bare number

CCAGCUCUAUAGGAUAUUCUUGAUGAAGACACGGAAGAAGGAUAGACAUGAGGAUCACCCAUGUCCUUACAUGU | 17.3
AUUACCCAAGGAUAUUGCAAUUGAGACAUGAGGAUCACCCAUGUACUUCCGGGUGUCAAUCAAGAAGGUGGAUGUU | 20.9
AGUAAAGUAGAAGGAUAUCACGAACAUGAGGAUCACCCAUGUUAAGAUCGGCGUGAGACAACAGAUGAGAAGGACUAAUAUGCU | 10.2
UCGAUACCUCUAAUGAAGACAUGAGGAUCACCCAUGUUUAACAGAAGGUAGUCGGGAAGAUAGACUAAGGAUAUGUUGCAGGUG | 24.3
AAUCAGAAAGGAUAUACAAGGAUUUUAUAUAGCACUGCUGGACAUGAGGAUCACCCAUGUAGAAGGUUCGCCCU | 9.51

apparent Kd of CGGUCACAUGAGGAUCACCCAUGUAAGGAUAUAGAUGUCUGUGUCAACCGACGGGCUUCUAGAAGGUACGGAUG on MS2 coat protein? 18.1

Test system MS2 coat protein; read-out apparent Kd; what value for GACAAGACAGGAUAUACAUAUAUGUAGCACGAAGAGUUAAGACAUGAGGAUCACCCAUGUAGAAGGGUCAUAAA ? 17.7

====

Tested on: MS2 coat protein
Test: apparent Kd, MS2 coat protein; higher = weaker binding; RNA-MaP array
Conditions: ligand present: flavin mononucleotide; designed as: ON switch for flavin mononucleotide
Outcome: Fulfilled for apparent Kd of at least 20 nM; Not fulfilled for anything lower.

AGCGCUUAACCAUAGGAUAUAUUGAUCAUUACAUGAGGAUCACCCAUGUGUCGAAGAAGGCAAUCAUAGAAGGAUGUCAUGUCGCU | Not fulfilled
AUAGAUAAGCAGAAGGGCUUGAGAUCCGUAACUAUUGACAUGAGGAUCACCCAUGUUCGUCCCUAGCAGGAUAUGCAAAGAAGC | Fulfilled
UCUUGACAUGAGGAUCACCCAUGUCACAUUUCUAGAGGAUAUAUACAUGUUGAUCUCUGUAUAGAAGGCUAAGUCG | Not fulfilled
GGCGUGUACACAGGAUAUGAUACAUGAGGAUCACCCAUGUUCGCGCUGGAUCUACGUGAGAACGAUCAGAAGGGUGCUGCAGGG | Fulfilled
ACAUGAGGAUCACCCAUGUCUACGAAGGUCGAAAUUAAUACCAGAAGGCGCGUCGACUAAGAGUGCGAGGAUAUGGUGUGUCGA | Not fulfilled
UUCGACCACGAGAAGGUGACGAAGGCCGAUUGUCAAGGAUAUCGACACAUGAGGAUCACCCAUGUCAGAGCGGGACUAACUAAA | Not fulfilled

Please find the next sequence below.
Please check the record AACAUGAGGAUCACCCAUGUUAGAAUAACAACGGAAAUAACAGAGGAUAUCGUUAAUUAAUAGCGCGAGAAGGCAGAAUUCAAA and state if its apparent Kd is at or above 20 nM. Not fulfilled

====

Test system: MS2 coat protein
Assay: apparent Kd, MS2 coat protein; higher = weaker binding; RNA-MaP array; theophylline 2 mM where present
Details: designed as: OFF switch for theophylline; no ligand
We begin with a simple list: items and their reported apparent Kd.
Reply with the number, then its unit.

Sample records with apparent Kd:
UAAACACAUGAGGAUCACCCAUGUCAUGAUACCAGUCAACAUGAGGACCCUUGGCAGCAUAAAAUGGGUAACAUGAGGAUCACCC | 0.0384 µM
UGGAAAGCACAUGAGGAUCACCCAUGUGAUACCAGCUGAAACUAAGGCCCUUGGCAGCACAUGGUACCAACCCUUUGGUAGUCCA | 0.0119 µM
UGACAUUGCUGCGAUACCAGACAUGAGGAUCACCCAUGUACCAAGGUAAGAAAAUAACAUGUCCCUUGGCAGCGCAGCAAUGUCU | 0.0149 µM

Record ACAUGAGGAUCACCCAUGUGCAGCACGGAUACCAGCGUCCUAGUGCGCCCUUGGCAGCCGGACAUGAGGAUCACCCAUGUGUGGG : what is its apparent Kd with MS2 coat protein? 0.0776 µM

====

Tested on: MS2 coat protein
Assay: apparent Kd, MS2 coat protein; higher = weaker binding; RNA-MaP array; FMN 200 µM where present
Settings: ligand present: flavin mononucleotide; designed as: OFF switch for flavin mononucleotide
Binary classification by apparent Kd, with 0.04 µM as an inclusive lower bound for Condition met; all other cases are Condition not met.

GUGGUACAUGAGGAUCACCCAUGUUAGGAUAUCGCGUGAGGUUUUGCUUCCGCGCGCGCGAGAAGGGACGUCUU | Condition not met
UAAGUGUGAGGAUAUGGUAAAGAUAAGAUGAUGAAAGAACUCCAGAAGGCACAUGAGGAUCACCCAUGUAGAUG | Condition met
UCUGCAUAGUCAGGAUAUGCAAAAUUUAUUUUCUUCGGAAAAUAAAUAACAUGAGGAUCACCCAUGUAGAAGGGACUGUGCAGA | Condition not met
CAUUAAUUCAUUAUAGUAAUUAUACAGGAUAUGUAACAUGAGGAUCACCCAUGUAUUCUUGGUAAACAGAAGGGUAUUACAAGU | Condition not met
UGAGCCUCGUGAGGAUAUACAUGAGGAUCACCCAUGUAAAUGAAAGAUAGCUCGAAACGAGCAAAGUAGAAGGCACGAGGCUCA | Condition not met
UAUUAUCACGAAGGAUAUGCUUACAUGAGGAUCACCCAUGUAUGUAUAUUGAUCCAGCGUUUUGAGCAGAAGGUCGUGAGUAAA | Condition met

Could you please find out whether CUUCGACAUGAGGAUCACCCAUGUCAGGAUAUUGUUUAUCUGGUGUUGUCCAGAUAUGCAAGAAGGGAUGUGUG has apparent Kd that meets 0.04 µM or exceeds it? Condition not met

Kindly determine if apparent Kd recorded for AAAGCAACAUGAGGAUCACCCAUGUAGGAUAUCGCUAUUGUAAUCAUGAAACAUGAUUACAAUAGCGAGAAGGACAUAUGCUAA is above or exactly 0.04 µM. Condition not met
